B1: Pistol ribozyme (parent)
chain: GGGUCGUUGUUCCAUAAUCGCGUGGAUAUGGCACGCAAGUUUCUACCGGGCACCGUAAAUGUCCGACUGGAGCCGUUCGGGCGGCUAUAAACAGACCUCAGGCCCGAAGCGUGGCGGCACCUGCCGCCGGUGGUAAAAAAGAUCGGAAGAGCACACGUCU

# Variants of: B1
# assay comment: aptazyme ON/OFF ratio, guanine; higher = stronger switching; co-transcriptional cleavage with and without guanine
value type: aptazyme ON/OFF ratio
No unit in the answer, please; the number alone is enough.

- variant id: "U7C U10G C12U"
  aptazyme ON/OFF ratio: 1.32

# input Fill in aptazyme ON/OFF ratio for record U8G C12U
# output 1.64

# input Fill in aptazyme ON/OFF ratio for record U7A G9U U10A U11G C13U
# output 1.21

# input Fill in aptazyme ON/OFF ratio for record U7G G9U U10C U11G C12U C13G
# output 1.23

# input Fill in aptazyme ON/OFF ratio for record U7G U8C G9A U10A U11C C13G
# output 1.05

# input Fill in aptazyme ON/OFF ratio for record U7C G9U U11A C12U C13G
# output 1.14
